assay.system: Protein translocase subunit SecA (Escherichia coli (strain K12)) (UniProt P10408)
Sequence (P10408 whole entry): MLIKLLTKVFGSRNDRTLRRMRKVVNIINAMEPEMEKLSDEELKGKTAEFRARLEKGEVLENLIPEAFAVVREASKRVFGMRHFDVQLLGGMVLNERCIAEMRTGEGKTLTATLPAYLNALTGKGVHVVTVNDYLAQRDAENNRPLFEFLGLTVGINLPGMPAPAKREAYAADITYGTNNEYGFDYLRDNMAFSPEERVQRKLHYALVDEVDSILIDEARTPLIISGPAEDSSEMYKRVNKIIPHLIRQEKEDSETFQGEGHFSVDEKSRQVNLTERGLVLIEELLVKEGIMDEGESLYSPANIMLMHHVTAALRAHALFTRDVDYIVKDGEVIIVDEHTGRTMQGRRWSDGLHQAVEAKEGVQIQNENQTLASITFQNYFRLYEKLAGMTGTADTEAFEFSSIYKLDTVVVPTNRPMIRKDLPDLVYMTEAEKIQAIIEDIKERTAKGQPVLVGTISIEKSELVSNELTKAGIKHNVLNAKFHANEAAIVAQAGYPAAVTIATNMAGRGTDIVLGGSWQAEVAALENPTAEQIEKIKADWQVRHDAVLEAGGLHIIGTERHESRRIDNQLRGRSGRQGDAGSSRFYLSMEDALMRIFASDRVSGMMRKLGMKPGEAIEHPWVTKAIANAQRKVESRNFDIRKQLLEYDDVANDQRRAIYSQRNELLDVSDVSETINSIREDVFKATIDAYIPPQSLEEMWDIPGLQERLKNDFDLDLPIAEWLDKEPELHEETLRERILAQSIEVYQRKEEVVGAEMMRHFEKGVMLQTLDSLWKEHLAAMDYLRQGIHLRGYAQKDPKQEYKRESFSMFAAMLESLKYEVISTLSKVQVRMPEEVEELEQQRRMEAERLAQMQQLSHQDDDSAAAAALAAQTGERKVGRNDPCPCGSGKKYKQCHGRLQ
assay.explanation: Assay to Identify E. coli SecA ATPase Inhibitors
Format: functional
Design: scale not given: direction of the effect not stated beside the values
test.context: 30 µM
Results with a measured potency or affinity are listed apart.
readout.type: Percent Effect (%)
Note: unit % is implicit; provide only the numeric part.

Prompt: Please look at this compound and report its Percent Effect: Cc1ccc(C(=O)N2CCCC2c2nnc3n2CCCCC3)o1 (stereo not drawn)
Response: 0.332

Prompt: Please look at this compound and report its Percent Effect: CN(C)C(=O)CC1CC2(CCNCC2)c2cc(F)ccc21 (stereo not drawn)
Response: -1.58

Prompt: Please look at this compound and report its Percent Effect: CN(C)c1cncc(C2CCN(CCO)CC2)n1
Response: -3.32

Prompt: Please look at this compound and report its Percent Effect: CN(CCNC(=O)Nc1ccncc1)C1CCCCC1
Response: -4.37

Prompt: Please look at this compound and report its Percent Effect: COc1cccc([C@@H]2CN(C(=O)c3ccc(C)cc3O)C[C@H]2C(=O)O)c1
Response: -3.46

Prompt: Please look at this compound and report its Percent Effect: CCc1ccc(CNC(=O)NC(C)CN2CCOCC2)s1 (stereo not drawn)
Response: -1.82

Prompt: Please look at this compound and report its Percent Effect: COc1ncccc1C(=O)N1CC[C@H]2C[C@@H](C)O[C@@H]2C1
Response: -0.702

Prompt: Please look at this compound and report its Percent Effect: CN(CCCNC(=O)N1CCCC1c1ccsc1)c1ccccn1 (stereo not drawn)
Response: -0.565

Prompt: Please look at this compound and report its Percent Effect: CCc1cc(NCCc2ccc(O)cc2)n2nccc2n1
Response: -0.557

Prompt: Please look at this compound and report its Percent Effect: CCCNC(=O)c1cc2c(nc1O)CCC(C)C2 (stereo not drawn)
Response: -3.98

Prompt: Please look at this compound and report its Percent Effect: COc1ccc(C(C)=O)c(OCC(=O)NC(C)c2ccc(F)cc2)c1 (stereo not drawn)
Response: -0.739

Prompt: Please look at this compound and report its Percent Effect: COc1cccc(CN(C)C(=O)CN2CCN(CCO)CC2)c1
Response: -2.96

Prompt: Please look at this compound and report its Percent Effect: Cc1nc(C)n(CC2CCCCN2CCC(=O)Nc2cc(C)on2)n1 (stereo not drawn)
Response: -3.16

Prompt: Please look at this compound and report its Percent Effect: Cc1nn(C)c(N(C)C)c1CNCC(O)COc1ccc(F)cc1 (stereo not drawn)
Response: -3.9

Prompt: Please look at this compound and report its Percent Effect: Cc1csc(N2CCCN(C(=O)C(C)n3ccnc3)CC2)n1 (stereo not drawn)
Response: -4.19

Prompt: Please look at this compound and report its Percent Effect: COCCCNC(=O)CN(C)C(=O)c1cc(C)ccc1N(C)C(C)C
Response: -2.35

Prompt: Please look at this compound and report its Percent Effect: COc1cc(CNC2CCCc3c2cnn3C)cc(OC)c1 (stereo not drawn)
Response: -5.5

Prompt: Please look at this compound and report its Percent Effect: CN1CCN(C(CNC(=O)CCn2cccn2)c2cccs2)CC1 (stereo not drawn)
Response: 1.81

###

Species: Homo sapiens
assay.explanation: To identify inhibition of the IFN signalling (Jak-Stat) pathway via expression of an eGFP reporter gene under the control of an IFN-stimulated response element (ISRE) containing MxA promoter.
Type: functional
Design: scale not given: direction of the effect not stated beside the values
test.context: 30 µM
For each entry below, report its Percent Effect value.
Note: unit % is implicit; provide only the numeric part.

Prompt: Please look at this compound and report its Percent Effect: O=C(NCc1ccccn1)[C@@H]1CCO[C@@H]2CCN(Cc3ccoc3)C[C@H]21
Response: 3.21

Prompt: Please look at this compound and report its Percent Effect: CC(C)OCc1ccc(CNC(=O)CC(F)(F)F)cc1
Response: 6.56

Prompt: Please look at this compound and report its Percent Effect: COCC1c2c(cnn2C)CCN1Cc1ccc(F)cc1 (stereo not drawn)
Response: -1.22

Prompt: Please look at this compound and report its Percent Effect: COC(=O)N1CCc2ccc(NC(=O)c3cn(C)nn3)cc2C1
Response: 12.5

Prompt: Please look at this compound and report its Percent Effect: CC(C)(C)c1n[nH]c(C2CN(C(=O)c3cc(Cl)c[nH]3)CCO2)n1 (stereo not drawn)
Response: -3.03

Prompt: Please look at this compound and report its Percent Effect: CCn1ccnc1CN1C[C@@H](CN2CCCC2)[C@@H](CO)C1
Response: -5.58

Prompt: Please look at this compound and report its Percent Effect: COc1nn(C)cc1C(=O)N1CCC(c2nnc(C3CC3)o2)CC1
Response: 16.4

Prompt: Please look at this compound and report its Percent Effect: Cc1cnc(CN(C)C2CCN(CC(=O)Nc3c(C)n[nH]c3C)C2)o1 (stereo not drawn)
Response: 33.5

Prompt: Please look at this compound and report its Percent Effect: CS(=O)(=O)CCSc1cccc(C#N)c1
Response: 7.41

Prompt: Please look at this compound and report its Percent Effect: CC(NCc1ccncc1)c1cc(F)ccc1N1CCN(C)CC1 (stereo not drawn)
Response: -10.1

Prompt: Please look at this compound and report its Percent Effect: O=C(NCCNc1ncccn1)N1CCSCC1
Response: 11.3

Prompt: Please look at this compound and report its Percent Effect: Cc1cc(C(=O)N2CCCC(n3cncn3)C2)c(C)n1C1CC1 (stereo not drawn)
Response: -3.71

Prompt: Please look at this compound and report its Percent Effect: Cc1cccc(-n2ncc(C(=O)N3CCn4c(C)nnc4C3)c2C)c1
Response: 12.8

###

assay.system: Sialic acid-binding Ig-like lectin 9 (Homo sapiens) (UniProt Q9Y336)
Sequence (Q9Y336 whole entry): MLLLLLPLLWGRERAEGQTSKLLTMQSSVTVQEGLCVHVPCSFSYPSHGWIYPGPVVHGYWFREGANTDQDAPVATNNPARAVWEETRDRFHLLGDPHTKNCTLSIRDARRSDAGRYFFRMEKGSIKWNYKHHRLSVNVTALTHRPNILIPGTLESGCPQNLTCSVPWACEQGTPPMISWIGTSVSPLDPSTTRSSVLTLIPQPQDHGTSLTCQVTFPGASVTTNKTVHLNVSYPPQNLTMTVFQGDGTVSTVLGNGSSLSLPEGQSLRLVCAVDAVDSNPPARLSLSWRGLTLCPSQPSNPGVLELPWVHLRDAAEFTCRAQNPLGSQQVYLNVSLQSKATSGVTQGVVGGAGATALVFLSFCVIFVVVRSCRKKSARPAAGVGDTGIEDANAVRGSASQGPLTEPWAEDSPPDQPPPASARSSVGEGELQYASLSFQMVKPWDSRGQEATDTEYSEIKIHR
assay.explanation: Hs-Siglec9 ALPHAscreen SOP 20170721
Parameters: scale not given: direction of the effect not stated beside the values
test.context: 10 µM
readout.type: Percent Effect (%)
Note: unit % is implicit; provide only the numeric part.

Prompt: Find the measured Percent Effect of Cc1nc(CN2CCCn3c(nc(Cn4ccnc4)cc3=O)C2)cs1 with Sialic acid-binding Ig-like lectin 9 (Homo sapiens) (UniProt Q9Y336) as test system.
Response: 0.752

Prompt: Find the measured Percent Effect of Cc1n[nH]c(C2CN(C(=O)CCc3ccco3)CCO2)n1 (configuration not stated) with Sialic acid-binding Ig-like lectin 9 (Homo sapiens) (UniProt Q9Y336) as test system.
Response: -2.52

Prompt: Find the measured Percent Effect of CC(CNCc1ccc(Cl)c(Cl)c1)Oc1ccccn1 (configuration not stated) with Sialic acid-binding Ig-like lectin 9 (Homo sapiens) (UniProt Q9Y336) as test system.
Response: -3.31

Prompt: Find the measured Percent Effect of CC(C)NC(=O)COc1nc(C(C)(C)C)no1 with Sialic acid-binding Ig-like lectin 9 (Homo sapiens) (UniProt Q9Y336) as test system.
Response: 27.8

Prompt: Find the measured Percent Effect of CCNC(=O)c1nnn(Cc2ccccc2)c1OC with Sialic acid-binding Ig-like lectin 9 (Homo sapiens) (UniProt Q9Y336) as test system.
Response: 5.7

Prompt: Find the measured Percent Effect of CCOc1cc(C)nc(N2CCN(C(=O)c3ccnn3C)CC2)n1 with Sialic acid-binding Ig-like lectin 9 (Homo sapiens) (UniProt Q9Y336) as test system.
Response: 4.02

Prompt: Find the measured Percent Effect of CSc1ncccc1C(=O)N1C[C@H]2CC[C@@H]1CN(c1cnccn1)C2 with Sialic acid-binding Ig-like lectin 9 (Homo sapiens) (UniProt Q9Y336) as test system.
Response: 7.96

###

assay.system: Chromo domain-containing protein 1 (Saccharomyces cerevisiae (strain ATCC 204508 / S288c) (Baker's yeast))
assay.explanation: ScCHD-1 Enzyme Inhibition Assay; further: in the data most compounds retested in dose-response had high values
Format: functional
Set-up: scale not given: direction of the effect not stated beside the values
test.context: 30 µM
For each entry below, report its Percent Effect value.
Note: unit % is implicit; provide only the numeric part.

Prompt: Please look at this compound and report its Percent Effect: Cc1cnn(CC2CCCCN2Cc2noc(C3CC3)n2)c1 (stereo not given)
Response: -5.92

Prompt: Please look at this compound and report its Percent Effect: Cc1noc([C@H]2C[C@@H]3CCN(C(=O)N(C)C)C[C@H]3O2)n1
Response: 0.431

Prompt: Please look at this compound and report its Percent Effect: CN(CCCC#N)C1CCCN(Cc2noc(C3CC3)n2)C1 (stereo not given)
Response: -5.25

Prompt: Please look at this compound and report its Percent Effect: C[C@@H]1CN(C(=O)c2ccc(C#N)nc2)C[C@@]1(O)C1CC1
Response: -12.3

Prompt: Please look at this compound and report its Percent Effect: Cc1cc(C)c(CNC(=O)NCC2CCCN2C)c(=O)[nH]1 (stereo not given)
Response: -2.8

Prompt: Please look at this compound and report its Percent Effect: COc1cccc(C(=O)N2CCc3ncnc(C)c3CC2)c1
Response: -8.63

Prompt: Please look at this compound and report its Percent Effect: Cc1cn2c(n1)CCC(NC(=O)CCn1ccnn1)C2 (stereo not given)
Response: 3

Prompt: Please look at this compound and report its Percent Effect: CC(C)(C)c1n[nH]c(C2CN(C(=O)c3cc(Cl)c[nH]3)CCO2)n1 (stereo not given)
Response: -6.65

Prompt: Please look at this compound and report its Percent Effect: COC(=O)c1cccc(OCCn2nc(-c3cccs3)oc2=O)c1
Response: 3.23

Prompt: Please look at this compound and report its Percent Effect: CC(=O)N1CCC(Cc2cnc(-c3c(C)n[nH]c3C)cn2)C1 (stereo not given)
Response: 0.0811
